Provide the recorded MIC for the entries that follow.
# Tested on: Enterococcus faecium
# test name: Antibacterial activity against VAN-resistant Enterococcus faecium ATCC 700221 after 18 hrs by agar dilution method
# Format: functional
# measurement context: ATCC 700221, 18 h
Just the number please, in µg/mL, no unit attached.

Task: Can you share its MIC? I mean this compound: "COc1ccc2c(c1OC)c(C1CC1)[n+]1c3c2ccc2c4c(cc(c23)CC1)OCO4.[Br-]"
Output: 16

Task: Can you share its MIC? I mean this compound: "CCCCc1cc2c3ccc(OC)c(OC)c3c[n+]3c2c2c(cc4c(c12)OCO4)CC3.[Cl-]"
Output: 16

Task: Can you share its MIC? I mean this compound: "C=Cc1c2c(OC)c(OC)ccc2c2ccc3c4c(cc5c3c2[n+]1CC5)OCO4.[Br-]"
Output: 4

Task: Can you share its MIC? I mean this compound: "COc1ccc2c(c1OC)c(CC(C)C)[n+]1c3c2ccc2c4c(cc(c23)CC1)OCO4.[Br-]"
Output: 16

Task: Can you share its MIC? I mean this compound: "CCc1cc2c3ccc(OC)c(OC)c3c(CC(C)C)[n+]3c2c2c(cc4c(c12)OCO4)CC3.[Br-]"
Output: 2

Task: Can you share its MIC? I mean this compound: "CCc1cc2c3ccc(OC)c(OC)c3c(-c3ccc(Cl)cc3)[n+]3c2c2c(cc4c(c12)OCO4)CC3.[Br-]"
Output: 1

Where these numbers come from: ChEMBL document CHEMBL4340517
